# assay.info: Tmax in naive Sprague-Dawley rat at 50 mg/kg ,po administered via gavage by LC-MS/MS method
# Assay type: ADME, organism-based
# test.context: in vivo
measured.attribute: Tmax (h)
Answers are plain numbers, in h.

Given the entry `C/C(=N\NC(=N)N)c1ccc(NC(=O)Nc2ccc(OC3CCCCCC3)cc2)cc1` , report its measured Tmax.
9.33

====

# assay.info: Cmax in naive Sprague-Dawley rat at 50 mg/kg ,po administered via gavage by LC-MS/MS method
# Format: ADME, organism-based
# Design: dose 50 mg/kg, route oral
# test.context: in vivo
measured.attribute: Cmax (ng/mL)
One number for each entry, in ng/mL.

Given the entry `C/C(=N\NC(=N)N)c1ccc(NC(=O)Nc2ccc(OC3CCCCCC3)cc2)cc1` , report its measured Cmax.
16.3

====

Please respond with reported MIC for every item in the list.
# Tested on: Staphylococcus aureus
# assay.info: Antibacterial activity against methicillin-resistant Staphylococcus aureus USA400 NRS123 clinical isolate after 20 hrs by broth microdilution method
# Assay type: functional
# test.context: USA400 NRS123, 20 h
Numbers only, in µg/mL.

Known results for compounds:
chemical.string	unit.text	MIC
C/C(=N\NC(=N)N)c1ccc(NC(=O)Nc2ccc(OCCCC(C)C)cc2)cc1	µg/mL	4
C/C(=N\NC(=N)N)c1ccc(NC(=O)Cc2ccc(F)cc2)cc1	µg/mL	16
C/C(=N\NC(=N)N)c1ccc(NC(=O)Nc2ccc(OCC(C)C)cc2)cc1	µg/mL	8

Given the entry `C/C(=N\NC(=N)N)c1ccc(NC(=O)c2ccc3c(c2)OCCN3C)cc1` , report its measured MIC.
16

====

# assay.info: Mean residence time in naive Sprague-Dawley rat at 50 mg/kg ,po administered via gavage by LC-MS/MS method
# Type: ADME, organism-based
# test.context: in vivo
measured.attribute: MRT

Given the entry `C/C(=N\NC(=N)N)c1ccc(NC(=O)Nc2ccc(OC3CCCCCC3)cc2)cc1` , report its measured MRT.
28.4 h

====

# assay.info: Half life in human liver microsomes in absence of NADPH by LC-MS/MS method
# Format: ADME, microsome
measured.attribute: half-life (min)
One number for each entry, in min.

Given the entry `C/C(=N\NC(=N)N)c1ccc(NC(=O)Nc2ccc(OC3CCCCCC3)cc2)cc1` , report its measured half-life.
53.8

====

# assay.info: Apparent permeability across basolateral to apical side in human Caco2 cells at 10 uM after 2 hrs by LC-MS/MS method
# Format: ADME, cell-based
# test.context: Caco-2
Please respond with reported Papp B→A at 2 h, 10 µM for every item in the list.
One number for each entry, in ×10⁻⁶ cm/s.

Known results for compounds:
compound	Papp B→A at 2 h, 10 µM [×10⁻⁶ cm/s]
CC(=O)CC(c1ccccc1)c1c(O)c2ccccc2oc1=O (stereo not drawn) [WARFARIN]	20.3
CNC(=C[N+](=O)[O-])NCCSCc1ccc(CN(C)C)o1 [RANITIDINE]	2.31

Given the entry `C/C(=N\NC(=N)N)c1ccc(NC(=O)Nc2ccc(OC3CCCCCC3)cc2)cc1` , report its measured Papp B→A at 2 h, 10 µM.
51.9

====

Please respond with reported half-life for every item in the list.
# assay.info: Half life in human liver microsomes in presence of NADPH by LC-MS/MS method
# Assay type: ADME, microsome
Answers are plain numbers, in h.

Each molecule below has a reported value. Please supply its half-life.
1. CCCCOc1ccc(NC(=O)Nc2ccc(/C(C)=N/NC(=N)N)cc2)cc1
2. C/C(=N\NC(=N)N)c1ccc(NC(=O)Nc2ccc(OC3CCCCCC3)cc2)cc1
3. CCCCc1ccc(NC(=O)Nc2ccc(/C(C)=N/NC(=N)N)cc2)cc1
4. Cc1ncc2n1-c1ccc(Cl)cc1C(c1ccccc1F)=NC2
5. C/C(=N\NC(=N)N)c1ccc(NC(=O)Nc2ccc(C(C)(C)C)cc2)cc1

1: 1.09; 2: 1.14; 3: 0.217; 4: 0.095; 5: 2.9
